System: Bacillus subtilis
Experiment description: Antibacterial activity against Bacillus subtilis ATCC 6051 after 24 hrs by broth dilution assay
Format: functional
Condition label: Bacillus subtilis, ATCC 6051, 24 h; read-out: MIC
Parameter: MIC (µg/mL)

Entry `CO[C@@H]1c2cc(C(C)C)c(O)c(O)c2[C@@]23CCCC(C)(C)[C@@H]2[C@@H]1OC3=O` , MIC reported as 20

P: CO[C@H]1C2=C(C(=O)C(=O)C(C(C)C)=C2)[C@@]23CCCC(C)(C)[C@@H]2[C@@H]1OC3=O
Q: CC(C)C1=CC2=C[C@H]3OC(=O)[C@@]4(CCCC(C)(C)[C@H]34)C2=C(O)C1=O [SAGEQUINONE METHIDE A]
IN: Could you please tell me which of these two has the higher MIC: P or Q ? Write down the label of the entry you select.
OUT: P

====

Test system: Staphylococcus epidermidis
Experiment description: Antibacterial activity against Staphylococcus epidermidis ATCC 14990 after 24 hrs by broth dilution assay
Assay type: functional
# MIC per entry

Solved cases below.
Reading of MIC for `C[C@H]1COC2=C1C(=O)C1=C(C2=O)[C@@]23CCCC(C)(C)[C@@H]2C[C@@H]1OC3=O` with Staphylococcus epidermidis: >40 µg/mL

For the compound `COc1c(C(C)C)cc2c(c1OC)[C@@]13CCCC(C)(C)[C@@H]1[C@H](OC3=O)[C@@H]2OCc1ccccc1` , the measured MIC on Staphylococcus epidermidis was >40 µg/mL

# context switch: different compound, same MIC
Per the reported Staphylococcus epidermidis data, `COC(=O)C1=C(/C=C(\C(=O)OC)C(C)C)[C@@H]2C[C@H]3C(C)(C)CCC[C@]13C(=O)O2` has MIC of >40 µg/mL

====

MIC values, listed per item
System: Staphylococcus aureus
Experiment description: Antibacterial activity against Staphylococcus aureus ATCC 6538 after 24 hrs by broth dilution assay
Assay type: functional
Condition label: Staphylococcus aureus, ATCC 6538, 24 h; read-out: MIC

Would you please look over these solved cases?
Measured MIC, `CC(C)c1cc2c(c(O)c1O)[C@@]13CCCC(C)(C)[C@@H]1[C@H](OC3=O)[C@@H]2OCc1ccccc1` : > 40 mg/L

For reference, reported MIC for `CO[C@@H]1c2cc(C(C)C)c(O)c(O)c2[C@@]23CCCC(C)(C)[C@@H]2[C@@H]1OC3=O` stands at > 40 mg/L

New cases:
Looking up `CO[C@H]1c2cc(C(C)C)c(O)c(O)c2[C@@]23CCCC(C)(C)[C@@H]2[C@@H]1OC3=O` , I see its MIC listed as > 40 mg/L

====

Measured pIC50 values are reported for all entries that follow.
System: HEp-2
Experiment description: Cytotoxicity against human Hep2 cells at exponential phase of growth after 48 hrs by MTT assay
Format: functional, cell-based
Condition label: Homo sapiens, HEp-2, 48 h; read-out: IC50
pIC50: −log10 of the molar value.

Reported pIC50 for `C[C@H]1COc2c1cc1c(c2O)[C@@]23CCCC(C)(C)[C@@H]2C[C@@H]1OC3=O` was < 4.22

Item: `CC(C)C1=CC2=C(C(=O)C1=O)[C@@]13CCCC(C)(C)[C@@H]1C[C@@H]2OC3=O` | pIC50: < 4.22

Value of pIC50 reported for the compound `CO[C@H]1C2=C(C(=O)C(=O)C(C(C)C)=C2)[C@@]23CCCC(C)(C)[C@@H]2[C@@H]1OC3=O` is < 4.22

Documented pIC50 of COC(=O)C1=C2C=C(C(C)C)COC2(O)[C@H]2OC(=O)[C@@]13CCCC(C)(C)[C@H]23 (stereo not given in full) : < 4.22

Others:
For reference, reported pIC50 for CC(=O)OC[C@H](C)C1=C(OC(C)=O)C(O)C2=C(C1=O)[C@@H]1C[C@H]3C(C)(C)CCC[C@]23C(=O)O1 (stereo not given in full) stands at < 4.35
